Molecular target: c-Met (cytoplasmic domain) (Homo sapiens)
Construct: 10 ng/mL c-Met (cytoplasmic domain, Invitrogen Corporation #PV3143); purchased Invitrogen Corporation PV3143
Sequence (P08581 956-1390 limits assumed): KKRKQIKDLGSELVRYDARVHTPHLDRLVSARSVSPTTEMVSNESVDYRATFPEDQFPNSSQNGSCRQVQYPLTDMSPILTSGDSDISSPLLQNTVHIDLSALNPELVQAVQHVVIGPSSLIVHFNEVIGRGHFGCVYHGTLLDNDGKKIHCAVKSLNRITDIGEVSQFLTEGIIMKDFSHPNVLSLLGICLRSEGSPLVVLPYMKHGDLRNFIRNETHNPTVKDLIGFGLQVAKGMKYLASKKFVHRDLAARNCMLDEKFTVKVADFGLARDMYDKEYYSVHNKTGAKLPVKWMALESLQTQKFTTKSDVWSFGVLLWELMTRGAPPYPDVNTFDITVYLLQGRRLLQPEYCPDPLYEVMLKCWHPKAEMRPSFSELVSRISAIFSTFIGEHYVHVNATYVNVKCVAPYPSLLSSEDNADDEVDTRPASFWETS
Assay: c-Met Kinase Assay (same methods as for ALK, with modifications)
Type: biochemical
Conditions: 1 μM ATP (Km level), 10 ng/mL c-Met; read-out: cMet Activity (c-Met kinase inhibition, IC50 class)
observed property: IC50

1) CNC(=O)c1ccc(N)cc1Nc1nc(Nc2ccc3c(c2)C(C)(C)CCC(=O)N3)ncc1Cl [Example 1239] = 1 to 10 µM
2) COCCN1CCc2cc(Nc3ncc(Cl)c(NC4(C(=O)NCC#N)CC4)n3)c(OC)cc2CC1 [Example 1197] = > 10 µM
3) COCCNC1CCc2cc(Nc3ncc(Cl)c(Nc4ccccc4-n4cccn4)n3)c(OC)cc2CC1 (stereo not drawn) [Example 1085] = > 10 µM
4) CNC(=O)c1cc(-c2cnn(C)c2)cc(F)c1Nc1nc(Nc2ccc3c(c2)CCN(CCOC)CC3)ncc1Cl [Example 1423] = < 0.1 µM
5) CNC(=O)c1cccc(F)c1Nc1nc(Nc2ccc3c(c2)NC(=O)CCO3)ncc1Cl [Example 1221] = < 0.1 µM
6) COc1cc2c(cc1Nc1ncc(Cl)c(Nc3ccccc3S(=O)(=O)N(C)C)n1)CCC(NCCO)CC2 (stereo not drawn) [Example 1089] = 1 to 10 µM
